# Tested on: Escherichia coli TOP10;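 note: peptides expressed intracellularly from a pBAD plasmid library in pooled LB shake-flask culture, induced with 0.3% L-arabinose, DNA abundance read by NGS, three biological replicates, DESeq2 with apeglm shrinkage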
# assay.method.text: shrunken log2 fold change of peptide-encoding DNA abundance (4.5 h post-induction vs induction); higher = less antimicrobial activity (less host growth inhibition)
# assay.context: time post-induction: 4.5 h; library: site-saturation at positions 5, 18, 19, 20
Please mark 1 (yes) if the recorded shrunken log2 fold change is equal to or greater than 0.03, and 0 (no) if it falls below.

sequence_string=RRIRFRPPRLPRPRPRPRDDPRP category="1 (yes)"
sequence_string=RRIRCRPPRLPRPRPRPVIGPRP category="0 (no)"
sequence_string=RRIRERPPRLPRPRPRPTVMPRP category="0 (no)"

Continue with the sequence presented below.
Q: Confirm if shrunken log2 fold change reported for the sequence RRIRARPPRLPRPRPRPPSPPRP is 0.03 or above.
Result: 1 (yes)
